// provenance: patent US20180016327A1

System Name: T1, human C5 (human, UniProt P01031 19-673; P01031 678-1676, Beta and alpha chains are disulfide-linked and the protein is glycosylated.)
T1 construct: Either in-house recombinant C5 or plasma derived C5 (CALBIOCHEM) was used; also called recombinant human C5; plasma derived human C5
Method Notes: Biacore, captured antibody, pH 7.4, 37 C;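 also: biacore binding response of anti-C5 antibody light chain variants captured on chip with human C5 injected, ACES running buffer containing 1.2 mM CaCl₂, parent light chain antibody set to 100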
Reported Metric: % binding (parent = 100) (%)
The answer is to be given in %; state only the numeric part.

CFP0018 18L 92P (antibody, V domains shown) VH: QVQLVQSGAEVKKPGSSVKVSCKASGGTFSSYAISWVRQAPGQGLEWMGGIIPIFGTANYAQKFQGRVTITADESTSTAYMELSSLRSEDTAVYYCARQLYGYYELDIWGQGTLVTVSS VL: DIQMTQSPSSLSASVGDRVTITCRASQSISDDLAWYQQKPGKAPKLLIYEASSLQSGVPSRFSGSGSGTDFTLTISSLQPEDFATYYCQQYPSYPLTFGQGTKVEIK: 64.5

## Input Requested read-out: % binding (parent = 100). Entry: CFP0015 15L 94T (antibody, V domains shown) VH: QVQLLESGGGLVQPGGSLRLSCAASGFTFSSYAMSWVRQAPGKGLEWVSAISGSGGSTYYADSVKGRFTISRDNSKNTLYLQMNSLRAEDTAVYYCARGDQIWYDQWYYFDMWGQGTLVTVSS VL: DIQMTQSPSSLSASVGDRVTITCRASQSIEDDLAWYQQKPGKAPKLLIYEASNLQSGVPSRFSGSGSGTDFTLTISSLQPEDFATYYCQQYDSTPLTFGQGTKVEIK
## Output 53.1

## Input Same again, this time with CFP0017 17L 31A (antibody, V domains shown) VH: QVQLVQSGAEVKKPGSSVKVSCKASGGTFSSYAISWVRQAPGQGLEWMGGIIPIFGTANYAQKFQGRVTITADESTSTAYMELSSLRSEDTAVYYCARGGWWGGALDYWGQGTLVTVSS VL: DIQMTQSPSSLSASVGDRVTITCRASQSIEADLAWYQQKPGKAPKLLIYHASSLQSGVPSRFSGSGSGTDFTLTISSLQPEDFATYYCQQSDSYPLTFGQGTKVEIK
## Output 0.6
